meta.source: PubChem BioAssay AID1159580

method_description: chemical genetic growth profiling, strain panel (AID 1159580);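 further: tested at 20 µM; growth read once vehicle control cultures reached saturation at 30 °C; 1 = growth at the plate median or of vehicle wells; lower values mean less growth of the strain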
settings: S. cerevisiae deletion strains, growth OD, locus YML120C, strain ndi1, stronger effect = lower value
About 2,000 (36%) of roughly 5,500 compounds were called active. Another 18% or so got no clear call; they are omitted. The list shows a part of the results.
Form field: normalized growth (one value per entry).
Response field accepts a number only; no unit should be typed.

Previously resolved entries follow.
[
  {
    "compound": "CNc1ccccc1C(=O)N1CCc2c([nH]c3ccccc23)C1=O",
    "readout_kind": "normalized growth",
    "val": 0.983
  },
  {
    "compound": "CN=C(NC#N)NCCSCc1nc[nH]c1C",
    "readout_kind": "normalized growth",
    "val": 0.993
  },
  {
    "compound": "CC1(C)C2CC[C@]3(C)C(C(=O)C=C4[C@H]5C[C@@](C)(C(=O)O)CC[C@]5(C)CC[C@]43C)[C@@]2(C)CC[C@@H]1O (stereo partly specified)",
    "readout_kind": "normalized growth",
    "val": 0.993
  },
  {
    "compound": "Cc1ccc2c(c1)CC[C@H]1CC(=O)CC[C@]21C",
    "readout_kind": "normalized growth",
    "val": 0.986
  }
]

Given the entry CC1(C)C2CC[C@]3(C)C(C(=O)C=C4[C@@H]5C[C@@](C)(C(=O)O)CC[C@]5(C)CC[C@]43C)[C@@]2(C)CC[C@@H]1OC(=O)CCC(=O)O (stereo partly specified) , report its measured normalized growth.
0.997

Given the entry COC(=O)[C@@H]1C(O)CC[C@H]2CN3CCc4c([nH]c5ccccc45)[C@@H]3C[C@@H]21 (stereo partly specified) , report its measured normalized growth.
1.02

* * *

method_description: chemical genetic growth profiling, strain panel (AID 1159580)
settings: S. cerevisiae deletion strains, growth OD, locus YKL067W, strain YNK1, stronger effect = lower value
Screen size: about 5,500 compounds; about 2,000 (36%) were called active. Roughly 18% stayed inconclusive and do not appear here. Some of the results follow.
// classify: if (normalized growth < 0.9) met else not met

Here are 3 molecules together with their reported answers.
[
  {
    "molecule": "O=C(Nc1cc(Cl)cc(Cl)c1)Nc1cc(-c2cccs2)[nH]n1",
    "assigned_class": "met"
  },
  {
    "molecule": "C=CC(=O)N1CCc2cc([N+](=O)[O-])ccc21",
    "assigned_class": "met"
  },
  {
    "molecule": "Cc1ccccc1C(=O)N1CCc2c([nH]c3ccccc23)C1C(F)(F)F (stereo not given)",
    "assigned_class": "not met"
  }
]

Does this molecule meet the criterion normalized growth < 0.9? O=C(CCN1CCCCC1)c1ccc(-c2ccccc2)cc1
not met

* * *

method_description: chemical genetic growth profiling, strain panel (AID 1159580)
settings: S. cerevisiae deletion strains, growth OD, locus YIR030C, strain dcg1, stronger effect = lower value
Hit rate of the full screen: of about 5,500 compounds, about 2,000 (36%) were called active. Roughly 18% stayed inconclusive and do not appear here. Some of the results follow.
Form field: normalized growth (one value per entry).
Response field accepts a number only; no unit should be typed.

[
  {
    "molecule": "OCCN(CCO)c1nc(N2CCCCC2)c2nc(N(CCO)CCO)nc(N3CCCCC3)c2n1",
    "normalized growth": 0.995
  }
]

Given the entry CC(=O)O[C@]1(C(C)=O)CCC2C3C=C(C)C4=CC(=O)CCC4(C)C3CCC21C (stereo not given in full) , report its measured normalized growth.
0.973

Given the entry CC(=O)O[C@]1(C(C)=O)CCC2C3C[C@H](C)C4=CC(=O)CC[C@]4(C)C3CC[C@@]21C (stereo not given in full) , report its measured normalized growth.
0.962

* * *

method_description: chemical genetic growth profiling, strain panel (AID 1159580);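 further: tested at 20 µM; growth read once vehicle control cultures reached saturation at 30 °C; 1 = growth at the plate median or of vehicle wells; lower values mean less growth of the strain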
settings: S. cerevisiae deletion strains, growth OD, locus YLR258W, strain gsy2, stronger effect = lower value
Hit rate of the full screen: of about 5,500 compounds, about 2,000 (36%) were called active. Not shown: some 18% with an inconclusive outcome. The list shows a part of the results.
readout_kind: normalized growth
Response field accepts a number only; no unit should be typed.

Previously resolved entries follow.
[
  {
    "compound": "CCCCOc1ccc(OCCCN2CCOCC2)cc1",
    "readout_kind": "normalized growth",
    "val": 0.946
  },
  {
    "compound": "CN=C(NC#N)NCCSCc1nc[nH]c1C",
    "readout_kind": "normalized growth",
    "val": 1.02
  },
  {
    "compound": "COc1ccc(-c2coc3c(OC)c(OC)cc(O)c3c2=O)cc1",
    "readout_kind": "normalized growth",
    "val": 0.982
  }
]

Given the entry OC(CCN1CCCCC1)(c1ccccc1)c1ccccc1 , report its measured normalized growth.
0.965

Given the entry COc1ccc2cc1Oc1ccc(cc1)C[C@H]1c3cc(c(OC)cc3CCN1C)Oc1c(OC)c(OC)cc3c1[C@H](C2)N(C)CC3 , report its measured normalized growth.
1.01

* * *

method_description: chemical genetic growth profiling, strain panel (AID 1159580);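 further: tested at 20 µM; growth read once vehicle control cultures reached saturation at 30 °C; 1 = growth at the plate median or of vehicle wells; lower values mean less growth of the strain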
settings: S. cerevisiae deletion strains, growth OD, locus YER155C, strain BEM2, stronger effect = lower value
The campaign covered roughly 5,500 compounds. About 2,000 (36%) were called active. Roughly 18% stayed inconclusive and do not appear here. The list shows a part of the results.
readout_kind: normalized growth
Response field accepts a number only; no unit should be typed.

Previously resolved entries follow.
[
  {
    "molecule": "CC[C@@H](CO)NCCN[C@@H](CC)CO",
    "normalized growth": 1.01
  },
  {
    "molecule": "O=C(O)C1CC([C@@H]2CCCCN2)CN2CCCCC12 (stereo partly specified)",
    "normalized growth": 1.01
  },
  {
    "molecule": "COc1cc2c(cc1OC)C(=O)C(CC1CCN(Cc3ccccc3)CC1)C2 (stereo unspecified)",
    "normalized growth": 1.01
  }
]

Given the entry C=C1CC[C@H](O)C/C1=C/C=C1\CCC[C@]2(C)C([C@H](C)/C=C/[C@H](C)C(C)C)CC[C@@H]12 (stereo partly specified) , report its measured normalized growth.
0.997

Given the entry COc1cc(OC)c2c(c1)OC(c1ccc(OC)c(OC)c1)C(O)C2 (stereo unspecified) , report its measured normalized growth.
0.999

Given the entry Cc1ccc2c(c1)CC[C@H]1CC(=O)CC[C@]21C , report its measured normalized growth.
0.997

Given the entry C=C(C)/C=C1/C=CC(=O)C(C)=C1 , report its measured normalized growth.
0.27

Given the entry C/C=C(/C(=C/C)c1ccc(O)cc1)c1ccc(O)cc1 , report its measured normalized growth.
0.624

Given the entry COc1ccc2c(c1)OC[C@@H](Cc1ccc(OC)c(OC)c1)[C@@H]2O , report its measured normalized growth.
0.976

Given the entry NC(=O)N1c2ccccc2CC(=O)c2ccccc21 , report its measured normalized growth.
0.982

Given the entry CCN(CC)C(=S)SSC(=S)N(CC)CC , report its measured normalized growth.
0.0787

* * *

method_description: chemical genetic growth profiling, strain panel (AID 1159580);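 further: tested at 20 µM; growth read once vehicle control cultures reached saturation at 30 °C; 1 = growth at the plate median or of vehicle wells; lower values mean less growth of the strain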
settings: S. cerevisiae deletion strains, growth OD, locus YML124C, strain tub3, stronger effect = lower value
In all, about 5,500 compounds went through this assay and about 2,000 (36%) were called active. Inconclusive results (about 18%) are left out. The list shows a part of the results.
readout_kind: normalized growth

Previously resolved entries follow.
[
  {
    "compound": "C/C=C(/C(=C/C)c1ccc(O)cc1)c1ccc(O)cc1",
    "val": "0.971 (inactive)"
  },
  {
    "compound": "Cn1cc[nH]c1=S",
    "val": "0.977 (inactive)"
  },
  {
    "compound": "CC(C)N(C(=O)CCl)c1ccccc1",
    "val": "1.02 (inactive)"
  },
  {
    "compound": "O=C(O)c1ccccc1OP(=O)(O)O",
    "val": "0.996 (inactive)"
  },
  {
    "compound": "CCCCOc1ccc(C(=O)CCN2CCCCC2)cc1",
    "val": "0.552 (active)"
  },
  {
    "compound": "C=C1CC[C@H](O)C/C1=C/C=C1\\CCC[C@]2(C)C([C@H](C)/C=C/[C@H](C)C(C)C)CC[C@@H]12 (some centres undefined)",
    "val": "0.985 (inactive)"
  },
  {
    "compound": "CC(=O)OCC(CCn1cnc2cnc(N)nc21)COC(C)=O",
    "val": "0.973 (inactive)"
  },
  {
    "compound": "CCC1(C)CC(=O)NC1=O (centres undefined)",
    "val": "1.02 (inactive)"
  },
  {
    "compound": "Cc1ccc2c(c1)CC[C@H]1CC(=O)CC[C@]21C",
    "val": "0.98 (inactive)"
  },
  {
    "compound": "CCc1nc(N)nc(N)c1-c1ccc(Cl)cc1",
    "val": "1 (inactive)"
  }
]

Given the entry CCc1cccc(C)c1N(C(=O)CCl)C(C)COC (centres undefined) , report its measured normalized growth.
1.02 (inactive)

Given the entry CCCCCCCCCCCCC[N+](C)(C)Cc1ccccc1 , report its measured normalized growth.
0.0618 (active)

Given the entry Cc1c(N(C)C)c(=O)n(-c2ccccc2)n1C , report its measured normalized growth.
0.997 (inactive)

Given the entry COC(=O)COc1cc(Cl)c(Cl)cc1Cl , report its measured normalized growth.
0.96 (inactive)

Given the entry CC(=C(CCOP(=O)(O)O)SC(=O)c1ccccc1)N(C=O)Cc1cnc(C)nc1N , report its measured normalized growth.
1.01 (inactive)

Given the entry CO[C@H]1C[C@H](O[C@H]2[C@H](C)[C@@H](OC3O[C@H](C)C[C@H](N(C)C)[C@H]3O)[C@@H](C)C[C@]3(CO3)C(=O)[C@H](C)[C@@H](O)[C@@H](C)[C@@H](C)OC(=O)[C@@H]2C)O[C@@H](C)[C@@H]1O (some centres undefined) , report its measured normalized growth.
1 (inactive)

Given the entry COc1ccc2c(c1)C1(C)CCC(=O)CC1CC2 (centres undefined) , report its measured normalized growth.
0.98 (inactive)

Given the entry CC1(C)C2CC[C@]3(C)C(C(=O)C=C4[C@@H]5C[C@@](C)(C(=O)O)CC[C@]5(C)CC[C@]43C)[C@@]2(C)CC[C@@H]1OC(=O)CCC(=O)O (some centres undefined) , report its measured normalized growth.
1 (inactive)

Given the entry C1CCc2nnnn2CC1 , report its measured normalized growth.
1.01 (inactive)

Given the entry O[C@H]1C=C2CCN3Cc4cc5c(cc4C(C23)[C@@H]1O)OCO5 (some centres undefined) , report its measured normalized growth.
0.538 (active)

Given the entry Nc1nc2[nH]c(=O)c(=O)[nH]c2c(=O)[nH]1 , report its measured normalized growth.
1.01 (inactive)

Given the entry CCC1(c2ccc(N)cc2)CCC(=O)NC1=O (centres undefined) , report its measured normalized growth.
0.985 (inactive)

Given the entry O=C(O)c1cc(=O)c2cc(Cl)ccc2[nH]1 , report its measured normalized growth.
1 (inactive)

Given the entry Cc1cc(C(C)(C)CC(C)(C)C)ccc1OCCOCC[N+](C)(C)Cc1ccccc1 , report its measured normalized growth.
0.0571 (active)

Given the entry N=c1nc(N2CCCCC2)cc(N)n1O , report its measured normalized growth.
0.98 (inactive)

Given the entry NC(N)=Nc1nc(CSCCC(N)=NS(N)(=O)=O)cs1 , report its measured normalized growth.
1 (inactive)

Given the entry NC[C@@H]1O[C@H](O[C@@H]2[C@@H](CO)OC(O[C@@H]3[C@@H](O)[C@H](N)C[C@H](N)[C@H]3OC3O[C@H](CN)[C@@H](O)[C@H](O)[C@H]3N)[C@@H]2O)[C@H](N)[C@@H](O)[C@@H]1O (some centres undefined) , report its measured normalized growth.
1.01 (inactive)

Given the entry O=C(O)COc1cc(Cl)c(Cl)cc1Cl , report its measured normalized growth.
1.02 (inactive)
